Just for reference, patent US20260176319A1 is where these values come from.

# systemUnderTest: human GRP receptor (human, UniProt P30550 1-384)
# Sequence (P30550 whole entry): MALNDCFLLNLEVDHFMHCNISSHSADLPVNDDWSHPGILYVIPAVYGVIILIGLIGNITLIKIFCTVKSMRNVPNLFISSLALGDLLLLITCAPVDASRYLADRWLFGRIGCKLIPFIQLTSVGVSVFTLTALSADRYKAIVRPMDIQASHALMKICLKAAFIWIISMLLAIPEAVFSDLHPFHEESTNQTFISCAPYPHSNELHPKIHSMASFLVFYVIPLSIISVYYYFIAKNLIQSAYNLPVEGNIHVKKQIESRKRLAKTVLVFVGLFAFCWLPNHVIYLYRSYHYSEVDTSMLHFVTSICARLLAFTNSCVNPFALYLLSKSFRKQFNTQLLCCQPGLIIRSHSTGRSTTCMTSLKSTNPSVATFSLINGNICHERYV
# testProtocol: cell-based or functional assay
Starred links: 1 amine or outer side, 2 acyl side, 3 side chain; linkers in the order of their positions; H or OH if unused. Non-standard residues stand in square brackets, D forms with d. *: point of attachment. Trp(7-Me) = Cc1cccc2c(C[C@H](N)C(=O)O)c[nH]c12; C20 diacid = O=C(O)CCCCCCCCCCCCCCCCCCC(=O)*; d(γGlu) = O=C(O)[C@@H](CCC(=O)[*:2])N[*:1]; C18 diacid = O=C(O)CCCCCCCCCCCCCCCCC(=O)*; γGlu = O=C(O)[C@H](CCC(=O)[*:2])N[*:1]; 3Pal = N[C@@H](Cc1cccnc1)C(=O)O; Nle = CCCC[C@H](N)C(=O)O; AEEA = NCCOCCOCC(=O)O; Sar = CNCC(=O)O
Collected hIP1 GRPR EC50 values appear next to each entry.
experimentalReadout: hIP1 GRPR EC50 (nM)

>  <binder>
{C18 diacid}-[d(γGlu)][AEEA][AEEA]GN[3Pal]WAV[dA]HL[Nle][Sar]-NH2 (SMILES CCCC[C@H](NC(=O)[C@H](CC(C)C)NC(=O)[C@H](Cc1c[nH]cn1)NC(=O)[C@@H](C)NC(=O)[C@@H](NC(=O)[C@H](C)NC(=O)[C@H](Cc1c[nH]c2ccccc12)NC(=O)[C@H](Cc1cccnc1)NC(=O)[C@H](CC(N)=O)NC(=O)CNC(=O)COCCOCCNC(=O)COCCOCCNC(=O)CC[C@@H](NC(=O)CCCCCCCCCCCCCCCCC(=O)O)C(=O)O)C(C)C)C(=O)N(C)CC(N)=O) [Peptide 72]

>  <readoutUnit>
nM

>  <valueObserved>
1050

$$$$
>  <binder>
EXXGNHWAVXHLK (Palmitoyl-D-γGlu-OEG-OEG-Gly-Asn-His-Trp-Ala-Val-D-Ala-His-Leu-Lys(Me)3-NH2) [Peptide 49]

>  <readoutUnit>
nM

>  <valueObserved>
4040

$$$$
>  <binder>
{C20 diacid}-[γGlu][AEEA][AEEA]GQH[Trp(7-Me)]AV[BAIBA]HL[Nle]-NH2 [Peptide 263]

>  <readoutUnit>
nM

>  <valueObserved>
2.7

$$$$
>  <binder>
EXXGNHWAVGHLM (Octadecanedioyl-D-γGlu-OEG-OEG-Gly-Asn-His-Trp-Ala-Val-Gly-His-Leu-Met-NH2) [Peptide 5]

>  <readoutUnit>
nM

>  <valueObserved>
7.5

$$$$
